// reported hemolysis at 1 h, 400 ug/ml per item
- measurement_description: Hemolytic activity in human RBC at 400 ug/ml after 1 hr
- Type: toxicity, cell-based, Erythrocyte
- particulars: red blood cells (erythrocytes), at 400 µg/mL, read-out: Activity
Positions of bridges follow the written chain, without caps; N, C: chain ends. Non-standard residues stand in square brackets, D forms with d. Residues, ends and D or L forms follow the SMILES beside them. *: point of attachment. Phe(4-CF3) = N[C@@H](Cc1ccc(C(F)(F)F)cc1)C(=O)O; Octanoyl = CCCCCCCC(=O)*; Dab = NCC[C@H](N)C(=O)O

compound	hemolysis at 1 h, 400 ug/ml
CC(=O)N[C@H](Cc1ccc(Cl)cc1)C(=O)N[C@@H](CCN)C(=O)N[C@H](C(=O)N[C@@H](CCN)C(=O)N[C@H]1CCNC(=O)[C@H]([C@@H](C)O)NC(=O)[C@H](CCN)NC(=O)[C@H](CCN)NC(=O)[C@H](CC(C)C)NC(=O)[C@@H](Cc2ccccc2)NC(=O)[C@@H](CCN)NC1=O)[C@H](C)O	< 10%

Please look at the following compound next.
# lookup: hemolysis at 1 h, 400 ug/ml of CCCCCCCC(=O)N[C@@H](CCN)C(=O)N[C@H](C(=O)N[C@@H](CCN)C(=O)N[C@H]1CCNC(=O)[C@H]([C@@H](C)O)NC(=O)[C@H](CCN)NC(=O)[C@H](CCN)NC(=O)[C@H](Cc2ccc(C(F)(F)F)cc2)NC(=O)[C@@H](CC(C)C)NC(=O)[C@H](CCN)NC1=O)[C@@H](C)O (Octanoyl-[Dab]T[Dab][Dab][Dab][dL][Phe(4-CF3)][Dab][Dab]T; lactam 4-C)
< 10%

----------
- System: Acinetobacter baumannii
- measurement_description: Antimicrobial activity against colistin resistant Acinetobacter baumannii clinical isolate 3 assessed as bacterial growth inhibition incubated for 20 hrs by broth microdilution method
- Type: functional
Positions of bridges follow the written chain, without caps; N, C: chain ends. Non-standard residues stand in square brackets, D forms with d. Residues, ends and D or L forms follow the SMILES beside them. *: point of attachment. Benzoyl(4-Ph) = O=C(c1ccc(-c2ccccc2)cc1)*; Gly(octyl) = CCCCCCCC[C@H](N)C(=O)O; hLeu = CC(C)CC[C@H](N)C(=O)O; Octanoyl = CCCCCCCC(=O)*; Dab = NCC[C@H](N)C(=O)O
Values of MIC strictly less than 1 µg/mL map to fulfilled, and values of at least 1 µg/mL map to not fulfilled.

compound	assigned_category
CCCCCCCC[C@@H]1NC(=O)[C@@H](Cc2ccccc2)NC(=O)[C@H](CCN)NC(=O)[C@@H](NC(=O)[C@H](CCN)NC(=O)[C@@H](NC(=O)[C@H](CCN)NC(=O)CCCCCCC)[C@@H](C)O)CCNC(=O)[C@H]([C@@H](C)O)NC(=O)[C@H](CCN)NC(=O)[C@H](CCN)NC1=O (Octanoyl-[Dab]T[Dab][Dab][Dab][dF][Gly(octyl)][Dab][Dab]T; lactam 4-C)	fulfilled

I'd appreciate it if you could check whether CC[C@H](C)[C@@H]1NC(=O)[C@@H](CC(C)C)NC(=O)[C@H](CCN)NC(=O)[C@@H](NC(=O)[C@@H](CO)NC(=O)[C@@H](NC(=O)[C@H](CCN)NC(=O)c2ccc(-c3ccccc3)cc2)[C@@H](C)O)CCNC(=O)[C@H](CC(C)C)NC(=O)[C@H](CCN)NC(=O)[C@H](CCN)NC1=O ({Benzoyl(4-Ph)}-[Dab]T[dS][Dab][Dab][dL]I[Dab][Dab]L; lactam 4-C) has MIC smaller than 1 µg/mL.
not fulfilled

I'd appreciate it if you could check whether CCCCCCCC(=O)N[C@@H](CCN)C(=O)N[C@H](C(=O)N[C@@H](CCN)C(=O)N[C@H]1CCNC(=O)[C@H]([C@@H](C)O)NC(=O)[C@H](CCN)NC(=O)[C@H](CCN)NC(=O)[C@H](CCC(C)C)NC(=O)[C@@H](Cc2ccccc2)NC(=O)[C@H](CCN)NC1=O)[C@@H](C)O (Octanoyl-[Dab]T[Dab][Dab][Dab][dF][hLeu][Dab][Dab]T; lactam 4-C) has MIC smaller than 1 µg/mL.
fulfilled

I'd appreciate it if you could check whether CCCCCCCC(=O)N[C@@H](CCN)C(=O)N[C@H](C(=O)N[C@@H](CCN)C(=O)N[C@H]1CCNC(=O)[C@H]([C@@H](C)O)NC(=O)[C@H](CCN)NC(=O)[C@H](CCN)NC(=O)[C@H](CC(C)C)NC(=O)[C@@H](Cc2ccc(Br)cc2)NC(=O)[C@H](CCN)NC1=O)[C@@H](C)O has MIC smaller than 1 µg/mL.
not fulfilled

----------
- measurement_description: Hemolytic activity in human RBC at 400 ug/ml after 1 hr
- Assay type: toxicity, cell-based, Erythrocyte
- particulars: red blood cells (erythrocytes), at 400 µg/mL, read-out: Activity
Positions of bridges follow the written chain, without caps; N, C: chain ends. Non-standard residues stand in square brackets, D forms with d. Residues, ends and D or L forms follow the SMILES beside them. *: point of attachment. dPhe(2-F) = N[C@H](Cc1ccccc1F)C(=O)O; Gly(octyl) = CCCCCCCC[C@H](N)C(=O)O; Octanoyl = CCCCCCCC(=O)*; Dab = NCC[C@H](N)C(=O)O
reported_endpoint: hemolysis at 1 h, 400 ug/ml

As a guide, the following entries are already answered.
compound	hemolysis at 1 h, 400 ug/ml
CCCCCCCC(=O)N[C@@H](CCN)C(=O)N[C@H](C(=O)N[C@@H](CCN)C(=O)N[C@H]1CCNC(=O)[C@H]([C@@H](C)O)NC(=O)[C@H](CCN)NC(=O)[C@H](CCN)NC(=O)[C@H](CC(C)C)NC(=O)[C@@H](Cc2ccccc2F)NC(=O)[C@H](CCN)NC1=O)[C@@H](C)O (Octanoyl-[Dab]T[Dab][Dab][Dab][dPhe(2-F)]L[Dab][Dab]T; lactam 4-C)	< 10%
CC(=O)N[C@H](Cc1c(F)c(F)c(F)c(F)c1F)C(=O)N[C@@H](CCN)C(=O)N[C@H](C(=O)N[C@@H](CCN)C(=O)N[C@H]1CCNC(=O)[C@H]([C@@H](C)O)NC(=O)[C@H](CCN)NC(=O)[C@H](CCN)NC(=O)[C@H](CC(C)C)NC(=O)[C@@H](Cc2ccccc2)NC(=O)[C@@H](CCN)NC1=O)[C@H](C)O	< 10%

Please look at the following compound next.
# lookup: hemolysis at 1 h, 400 ug/ml of CCCCCCCC[C@@H]1NC(=O)[C@@H](Cc2ccccc2)NC(=O)[C@H](CCN)NC(=O)[C@@H](NC(=O)[C@H](CCN)NC(=O)[C@@H](NC(=O)[C@H](CCN)NC(=O)CCCCCCC)[C@@H](C)O)CCNC(=O)[C@H]([C@@H](C)O)NC(=O)[C@H](CCN)NC(=O)[C@H](CCN)NC1=O (Octanoyl-[Dab]T[Dab][Dab][Dab][dF][Gly(octyl)][Dab][Dab]T; lactam 4-C)
< 10%

----------
- System: Pseudomonas aeruginosa
- measurement_description: Antimicrobial activity against colistin resistant Pseudomonas aeruginosa clinical isolate 1 assessed as bacterial growth inhibition incubated for 20 hrs by broth microdilution method
- Format: functional
Positions of bridges follow the written chain, without caps; N, C: chain ends. Non-standard residues stand in square brackets, D forms with d. Residues, ends and D or L forms follow the SMILES beside them. *: point of attachment. Benzoyl(4-Ph) = O=C(c1ccc(-c2ccccc2)cc1)*; dPhe(4-Cl) = N[C@H](Cc1ccc(Cl)cc1)C(=O)O; Octanoyl = CCCCCCCC(=O)*; Dab = NCC[C@H](N)C(=O)O
// reported MIC per item

As a guide, the following entries are already answered.
compound	experimental_system	reported_endpoint	test_value
CCCCCCCC(=O)N[C@@H](CCN)C(=O)N[C@H](C(=O)N[C@@H](CCN)C(=O)N[C@H]1CCNC(=O)[C@H]([C@@H](C)O)NC(=O)[C@H](CCN)NC(=O)[C@H](CCN)NC(=O)[C@H](CC(C)C)NC(=O)[C@@H](Cc2ccc(Br)cc2)NC(=O)[C@H](CCN)NC1=O)[C@@H](C)O	Pseudomonas aeruginosa	MIC	2 µg/mL
CC[C@H](C)[C@@H]1NC(=O)[C@@H](CC(C)C)NC(=O)[C@H](CCN)NC(=O)[C@@H](NC(=O)[C@@H](CO)NC(=O)[C@@H](NC(=O)[C@H](CCN)NC(=O)c2ccc(-c3ccccc3)cc2)[C@@H](C)O)CCNC(=O)[C@H](CC(C)C)NC(=O)[C@H](CCN)NC(=O)[C@H](CCN)NC1=O ({Benzoyl(4-Ph)}-[Dab]T[dS][Dab][Dab][dL]I[Dab][Dab]L; lactam 4-C)	Pseudomonas aeruginosa	MIC	2 µg/mL
CCCCCCCC(=O)N[C@@H](CCN)C(=O)N[C@H](C(=O)N[C@@H](CCN)C(=O)N[C@H]1CCNC(=O)[C@H]([C@@H](C)O)NC(=O)[C@H](CCN)NC(=O)[C@H](CCN)NC(=O)[C@H](CC(C)C)NC(=O)[C@@H](Cc2ccc(Cl)cc2)NC(=O)[C@H](CCN)NC1=O)[C@@H](C)O (Octanoyl-[Dab]T[Dab][Dab][Dab][dPhe(4-Cl)]L[Dab][Dab]T; lactam 4-C)	Pseudomonas aeruginosa	MIC	4 µg/mL
CCCCCCCC(=O)N[C@@H](CCN)C(=O)N[C@H](C(=O)N[C@@H](CCN)C(=O)N[C@H]1CCNC(=O)[C@H]([C@@H](C)O)NC(=O)[C@H](CCN)NC(=O)[C@H](CCN)NC(=O)[C@H](CCCc2ccccc2)NC(=O)[C@@H](Cc2ccccc2)NC(=O)[C@H](CCN)NC1=O)[C@@H](C)O	Pseudomonas aeruginosa	MIC	2 µg/mL

Please look at the following compound next.
# lookup: MIC of CCCCCCCC(=O)N[C@@H](CCN)C(=O)N[C@H](C(=O)N[C@@H](CCN)C(=O)N[C@H]1CCNC(=O)[C@H]([C@@H](C)O)NC(=O)[C@H](CCN)NC(=O)[C@H](CCN)NC(=O)[C@H](CCCCCC)NC(=O)[C@@H](Cc2ccccc2)NC(=O)[C@H](CCN)NC1=O)[C@@H](C)O
2 µg/mL
